SYSTEM UNDER TEST: DNA gyrase (Escherichia coli)
METHOD NOTES: The inhibitory activity was measured for the supercoiling activity of DNA gyrase isolated from Escherichia coli K-12 C600.
Lab note: anything with IC50 below 900 nM is marked rule met; values at 900 nM or higher are marked rule not met.

# example entries with known answers
COMPOUND	CLASS
CC1COc2c(N3CCNCC3)c(F)cc3c(=O)c(C(=O)O)cn1c23 (stereo unspecified)	rule not met
O=C(O)c1c(=O)c2cc(F)c(N3CCC(O)C3)c3c2n2c(csc12)CO3 (stereo unspecified)	rule not met
CN1CCN(c2c(F)cc3c(=O)c(C(=O)O)c4scc5n4c3c2OC5)CC1	rule met

A record lists `O=C(O)c1c(=O)c2cc(F)c(N3CCCC3)c3c2n2c(csc12)CO3` . Is its IC50 below 900 nM?
rule not met

A record lists NC1CCN(c2c(F)cc3c(=O)c(C(=O)O)c4scc5n4c3c2OC5)C1 (stereo unspecified) . Is its IC50 below 900 nM?
rule met

A record lists `O=C(O)c1c(=O)c2cc(F)c(N3CCNCC3)c3c2n2c(csc12)CO3` . Is its IC50 below 900 nM?
rule met
